The following molecules are shown together with reported inhibition values.
# targetOrSystem: UniProt P10323
# assayDetails: Compound was tested for inhibition of Human acrosin by aldohexoses
# Design: concentration or dose not given beside the values
# recordedConditions: concentration not given here
parameter: inhibition (%)

>  <molecule>
OC[C@H]1O[C@@H](O)[C@H](O)[C@@H](O)[C@H]1O (stereo in doubt; form 2)

>  <valueMeasured>
12

$$$$
>  <molecule>
C[C@H](O)[C@@H](O)[C@@H](O)[C@H](O)C=O

>  <valueMeasured>
20

$$$$
>  <molecule>
OC[C@H]1O[C@@H](O)[C@H](O)[C@@H](O)[C@H]1O (stereo in doubt; form 1)

>  <valueMeasured>
34

$$$$
>  <molecule>
C[C@H]1OC(O)[C@H](O)[C@@H](O)[C@H]1O (stereo partly drawn)

>  <valueMeasured>
62

$$$$
>  <molecule>
OC[C@H]1OC(O)[C@@H](O)[C@@H](O)[C@@H]1O (stereo partly drawn)

>  <valueMeasured>
60

$$$$
>  <molecule>
OC[C@H]1OC(O)[C@H](O)[C@H](O)[C@H]1O (stereo partly drawn)

>  <valueMeasured>
0

$$$$
>  <molecule>
OC[C@@H]1OC(O)[C@@H](O)[C@H](O)[C@H]1O (stereo partly drawn)

>  <valueMeasured>
0

$$$$
>  <molecule>
OC[C@H]1OC(O)[C@H](O)[C@@H](O)[C@@H]1O (stereo partly drawn)

>  <valueMeasured>
28

$$$$

----------
# targetOrSystem: Acrosin (Homo sapiens)
# assayDetails: Compound was tested for inhibition of Human acrosin by polyols
# recordedConditions: concentration not given here
The following molecules are shown together with reported inhibition values.
parameter: inhibition

>  <chemicalSmiles>
OC[C@@H](O)[C@@H](O)[C@H](O)[C@@H](O)CO

>  <valueMeasured>
38%

$$$$
>  <chemicalSmiles>
OCC(O)CO

>  <valueMeasured>
28%

$$$$
>  <chemicalSmiles>
OC[C@@H](O)[C@@H](O)[C@H](O)[C@H](O)CO

>  <valueMeasured>
29%

$$$$
>  <chemicalSmiles>
O[C@H]1[C@H](O)[C@@H](O)[C@H](O)[C@@H](O)[C@H]1O

>  <valueMeasured>
30%

$$$$

----------
The following molecules are shown together with reported inhibition values.
# targetOrSystem: Acrosin (Homo sapiens) (UniProt P10323)
# Sequence (P10323 20-42 limits assumed): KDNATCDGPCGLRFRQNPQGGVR
# Sequence (P10323 43-343 limits assumed): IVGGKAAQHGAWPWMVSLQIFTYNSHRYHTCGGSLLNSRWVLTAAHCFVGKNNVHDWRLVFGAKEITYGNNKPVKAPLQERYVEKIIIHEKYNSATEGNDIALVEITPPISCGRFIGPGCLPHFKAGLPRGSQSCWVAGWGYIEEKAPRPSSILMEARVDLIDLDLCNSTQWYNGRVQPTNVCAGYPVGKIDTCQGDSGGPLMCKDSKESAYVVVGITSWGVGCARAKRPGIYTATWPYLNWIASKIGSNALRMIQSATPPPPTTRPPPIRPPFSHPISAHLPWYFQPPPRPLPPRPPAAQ
# assayDetails: Compound was tested for inhibition of Human acrosin by ketoses
# recordedConditions: concentration not given here
parameter: inhibition

>  <molecule>
OC[C@H]1OC(O)(CO)[C@@H](O)[C@@H](O)[C@@H]1O (some centres undefined)

>  <valueMeasured>
41%

$$$$
>  <molecule>
O=C(CO)C(O)C(O)CO (centres undefined)

>  <valueMeasured>
38%

$$$$
>  <molecule>
O=C(CO)CO

>  <valueMeasured>
15%

$$$$
>  <molecule>
O=C(CO)[C@@H](O)[C@H](O)[C@H](O)CO

>  <valueMeasured>
47%

$$$$

----------
The following compounds are shown together with reported inhibition values.
# targetOrSystem: Acrosin (Homo sapiens)
# assayDetails: Compound was tested for inhibition of Human acrosin by phosphorylated monosaccharides
# Parameters: concentration or dose not given beside the values
# recordedConditions: concentration not given here

>  <compound>
O=P(O)(O)OC[C@H]1OC(O)[C@H](O)[C@@H](O)[C@H]1O (some centres undefined)

>  <inhibition, %>
10

$$$$
>  <compound>
O=C[C@H](O)[C@@H](O)[C@@H](O)[C@H](O)CO

>  <inhibition, %>
0

$$$$
>  <compound>
O=C(CO)[C@@H](O)[C@H](O)[C@H](O)CO

>  <inhibition, %>
46

$$$$
>  <compound>
O=P(O)(O)OC[C@@]1(O)O[C@H](CO)[C@@H](O)[C@@H]1O

>  <inhibition, %>
9

$$$$
>  <compound>
OC[C@H]1O[C@H](O)[C@H](O)[C@@H]1O

>  <inhibition, %>
45

$$$$
>  <compound>
O=P(O)(O)OC1O[C@H](CO)[C@H](O)[C@H](O)[C@H]1O (some centres undefined)

>  <inhibition, %>
3

$$$$
>  <compound>
O=P(O)(O)OC[C@H]1OC(O)(COP(=O)(O)O)[C@@H](O)[C@@H]1O (some centres undefined)

>  <inhibition, %>
18

$$$$
>  <compound>
O=P(O)(O)OC[C@H]1O[C@](O)(CO)[C@@H](O)[C@@H]1O

>  <inhibition, %>
7

$$$$
>  <compound>
O=P(O)(O)OC[C@H]1O[C@H](O)[C@H](O)[C@@H]1O

>  <inhibition, %>
15

$$$$
